Target: CALRins5 (mutant calreticulin, 5 base pair insertion, Type 2) expressed with MPL on engineered cancer cells (UniProt P27797)
Sequence (P27797 other isoform, or with tags, fused parts or gaps mutant limits assumed): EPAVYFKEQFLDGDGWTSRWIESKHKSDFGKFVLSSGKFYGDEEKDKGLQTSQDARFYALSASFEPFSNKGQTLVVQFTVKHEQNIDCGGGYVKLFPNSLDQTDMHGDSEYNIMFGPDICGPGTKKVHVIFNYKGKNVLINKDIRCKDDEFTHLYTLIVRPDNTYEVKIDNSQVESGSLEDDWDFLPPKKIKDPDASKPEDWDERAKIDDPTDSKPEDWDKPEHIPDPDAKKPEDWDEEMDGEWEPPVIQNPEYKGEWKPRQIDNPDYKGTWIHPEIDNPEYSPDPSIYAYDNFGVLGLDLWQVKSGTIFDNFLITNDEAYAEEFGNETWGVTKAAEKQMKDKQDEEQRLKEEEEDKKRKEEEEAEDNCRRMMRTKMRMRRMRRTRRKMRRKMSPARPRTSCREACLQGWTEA
Assay: cell-based or functional assay
MEASURED PARAMETER: Cytotoxicity EC50, OCI-M2 MPL CALRins5 cells (µg/mL)
Report the figure in µg/mL without appending any unit label.

Solved entries:
| BINDER | READOUT VALUE |
| --- | --- |
| CALRB120 (MP1018C Fab x CD3W245-HL-scFv, high affinity) (bispecific antibody, part only; not given: CD3 scFv arm and IgG1 constant regions, V domains shown, not shown: another chain or arm of the molecule; a dimerising Fc or GST; small tags and cut ends) VL: DVVMTQTPSSVSAAVGGTVTINCQASQSLYNNKNLAWYQQKPGQPPKLLIYYASALASGVSSRFKGSGSGTQFTLTISGVQSDDAATYYCQGEFNCNSADCNSFGGGTEVVVK VH: QSVEESGGRLVTPGTPLTITCTVSGFSLSSYAMSWVRQAPGKGLEWIGVIDSGGTTYYATWAKSRFTISKTSSTKVALKITSPTTEDTATYFCARESYAGYDGYGHPIPYGMDPWGPGTLVTVSS | 0.0145 |
| CALRB118 (MP1016C Fab x CD3W245-HL-scFv, high affinity) (bispecific antibody, part only; not given: CD3 scFv arm and IgG1 constant regions, V domains shown, not shown: another chain or arm of the molecule; a dimerising Fc or GST; small tags and cut ends) VL: DPVLTQTESPVSAAVGGTVTINCQASQSVYDDNNLAWYQQKPGQPPKRLIYPASTLASGVSSRFSGSGSGSQFTLTISDVQSDDAATYYCQGEFSCTSADCVAFGGGTEVVVK VH: QEQLKESGGRLVTPGTPLTLTCTASGFSLSNYYMSWVRQAPGKGLEWIGGISSRAGTWYASWAKGRFTISGTSSTTMDLKITSPTTEDTATYFCARGLKIWGPGTLVTVSS | 0.0136 |

For the next question, use this binder.
Identify Cytotoxicity EC50, OCI-M2 MPL CALRins5 cells associated with the binder CALRB80 (MP1018C Fab x CD3W245-LH-scFv, medium affinity) (bispecific antibody, part only; not given: CD3 scFv arm and IgG1 constant regions, V domains shown, not shown: another chain or arm of the molecule; a dimerising Fc or GST; small tags and cut ends) VL: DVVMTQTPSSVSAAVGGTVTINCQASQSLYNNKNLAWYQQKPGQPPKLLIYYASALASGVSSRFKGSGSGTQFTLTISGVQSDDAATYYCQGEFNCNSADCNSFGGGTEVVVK VH: QSVEESGGRLVTPGTPLTITCTVSGFSLSSYAMSWVRQAPGKGLEWIGVIDSGGTTYYATWAKSRFTISKTSSTKVALKITSPTTEDTATYFCARESYAGYDGYGHPIPYGMDPWGPGTLVTVSS
0.0212
